Source: patent US20170007615A1

Documented MIC across a set of compounds
Tested on: E. coli (ATCC 25922)
Assay: microbe, parasite or virus in culture
Details: Escherichia coli, ATCC25922, read-out: MIC Compound alone, Table 1

>>> df
                               entry_smiles  parameter_measured      result
0  CCNC(=O)Nc1nc2cc(-c3cnc(NC(=O)N4CC[C@@H](O)C4)nc3)cc(-c3ccc(C)cn3)c2s1                 MIC  > 64 µg/mL
1  CCNC(=O)Nc1nc2cc(-c3cnc(NS(=O)(=O)C(C)(C)C)nc3)cc(-c3cnc(N(C)C)nc3)c2s1                 MIC  > 64 µg/mL

For CCNC(=O)Nc1nc2cc(-c3cnc(NC(=O)OC)nc3)cc(-c3ccccn3)c2s1 , what is its reported MIC?
> 64 µg/mL
